Molecular target: JAK3 (Homo sapiens, UniProt P52333)
Construct: All enzymes only contain the catalytic domain; His (N); purchased Carna Bioscience, Inc; host or cells: baculovirus expression system
Sequence (P52333 822-1111 limits assumed): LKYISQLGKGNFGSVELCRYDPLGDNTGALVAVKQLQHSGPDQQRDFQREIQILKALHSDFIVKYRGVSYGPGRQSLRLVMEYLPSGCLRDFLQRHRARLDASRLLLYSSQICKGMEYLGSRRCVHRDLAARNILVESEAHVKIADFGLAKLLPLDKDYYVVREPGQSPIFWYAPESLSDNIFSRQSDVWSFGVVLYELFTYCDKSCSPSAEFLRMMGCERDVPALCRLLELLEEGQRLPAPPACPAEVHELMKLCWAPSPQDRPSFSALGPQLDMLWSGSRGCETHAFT
Experiment: In vitro enzyme assay (cell-free HTRF kinase assay), JAK3
Assay type: biochemical
Details: catalytic domain, His-tag; ATP 3 μM, SRCtide 100 nM, reaction 30 min
Experimental: Kinase buffer [50 mM HEPES (pH 7.5), 1 mM EGTA, 10 mM MgCl2, 2 mM DTT and 0.01% Tween-20) was prepared and dilutions of a compound of formula (I) and other reagents were subsequently made in it. […] Cell-free in vitro kinase assay was performed in 384 well plates. […] TopSeal was removed and HTRF signal was measured at 615 nm and […] (excitation at 320 or 340 nm) on Tecan M1000 Multi mode plate reader. Ratio (665 nm/615 nm)×10^4 was calculated and IC50 values were deduced from Graph-pad prism 4.2.
Metric name: IC50

Please indicate IC50 recorded for `O=C(NCCCN1CCOCC1)c1cc(Cl)c(C(=O)c2c[nH]c3c(NC(=O)C4CC4)nccc23)c(Cl)c1`
< 500 nM

Please indicate IC50 recorded for O=C(NCC(O)CO)c1cc(Cl)c(C(=O)n2ccc3c(NC(=O)C4CC4)nccc32)c(Cl)c1 (stereo not drawn)
< 50 nM

Please indicate IC50 recorded for O=C(NCC(O)CO)c1cc(Cl)c(C(=O)c2c[nH]c3c(NC(=O)C4CC4)nccc23)c(Cl)c1 (stereo not drawn)
< 50 nM

Please indicate IC50 recorded for `COCCNC(=O)c1cc(Cl)c(C(=O)c2c[nH]c3c(NC(=O)C4CC4)nccc23)c(Cl)c1`
< 500 nM

Please indicate IC50 recorded for `N#Cc1cc(Cl)c(C(=O)n2ccc3c(NC(=O)C4CC4)nccc32)c(Cl)c1`
< 500 nM

Please indicate IC50 recorded for `CCOCCCNC(=O)c1cc(Cl)c(C(=O)c2c[nH]c3c(NC(=O)C4CC4)nccc23)c(Cl)c1`
< 500 nM

Please indicate IC50 recorded for CC(CO)NC(=O)c1cc(Cl)c(C(=O)n2ccc3c(NC(=O)C4CC4)nccc32)c(Cl)c1 (stereo not drawn)
< 500 nM

Please indicate IC50 recorded for `O=C(NCc1ccccn1)c1cc(Cl)c(C(=O)n2ccc3c(NC(=O)C4CC4)nccc32)c(Cl)c1`
< 500 nM

Please indicate IC50 recorded for `O=C(NCCF)c1cc(F)c(C(=O)c2c[nH]c3c(NC(=O)C4CC4)nccc23)c(F)c1`
< 500 nM

Please indicate IC50 recorded for `O=C(NCCO)Nc1cc(Cl)c(C(=O)n2ccc3c(NC(=O)C4CC4)nccc32)c(Cl)c1`
< 500 nM

Please indicate IC50 recorded for `O=C(NCCN1CCCC1)c1cc(Cl)c(C(=O)n2ccc3c(NC(=O)C4CC4)nccc32)c(Cl)c1`
< 100 nM

Please indicate IC50 recorded for `CNC(=O)c1cc(F)c(C(=O)c2c[nH]c3c(NC(=O)C4CC4)nccc23)c(F)c1`
< 500 nM

Please indicate IC50 recorded for `O=C(NCCN1CCCCC1)c1cc(Cl)c(C(=O)c2c[nH]c3c(NC(=O)C4CC4)nccc23)c(Cl)c1`
< 500 nM

Please indicate IC50 recorded for `CN(C)CCNC(=O)c1cc(F)c(C(=O)c2c[nH]c3c(NC(=O)C4CC4)nccc23)c(F)c1`
< 500 nM

Please indicate IC50 recorded for `O=C(Nc1nccc2c1ccn2C(=O)c1c(Cl)cc(CNCCCO)cc1Cl)C1CC1`
< 500 nM
